Values compiled from paper PMC9571063.

# targetUnderTest: Hs_CDK9/CyclinT (Homo sapiens)
# Construct: host or cells: Sf9 insect cells (baculovirus)
# assay: ADP-Glo kinase assay, primary screen
# Format: biochemical
# conditionSet: 1 µM, n=2; read-out: % of residual activity Hs_CDK9/CyclinT
recordedMetric: remaining activity at 1 µM (%)
Answers are plain numbers, in %.

| compound | obsValue |
| --- | --- |
| CC(C)(C)OC(=O)N[C@H]1CC[C@@H](n2cc(COc3cccc4cnc(Nc5cc(Cl)cc(Cl)c5)nc34)nn2)CC1 [15b] | 92 |
| N[C@H]1CC[C@H](n2cc(COc3cccc4cnc(Nc5cccc(Cl)c5)nc34)nn2)CC1 [19a] | 65 |
| Cc1ccc(-n2cc(COc3cccc4cnc(Nc5cc(Cl)cc(Cl)c5)nc34)nn2)c([N+](=O)[O-])c1 | 80 |

# input If you can, please state the reported remaining activity at 1 µM value of "Cc1ccc(-n2cc(COc3cccc4cnc(Nc5ccccc5)nc34)nn2)c([N+](=O)[O-])c1" .
# output 55

----------
# targetUnderTest: Rn_DYRK1A (Rattus norvegicus, UniProt Q63470)
# Construct: host or cells: bacteria
# assay: ADP-Glo kinase assay, primary screen
# Type: biochemical
# conditionSet: 1 µM, n=2; read-out: % of residual activity Rn_DYRK1A
recordedMetric: remaining activity at 1 µM (%)
Give bare numbers, in %.

| compound | targetUnderTest | remaining activity at 1 µM (%) |
| --- | --- | --- |
| Cc1ccc(-n2cc(COc3cccc4cnc(Nc5ccccc5)nc34)nn2)c([N+](=O)[O-])c1 | Rn_DYRK1A (Rattus norvegicus, UniProt Q63470) | 56 |

Please find the next compound below.
# input Give the measured remaining activity at 1 µM of CC(C)(C)OC(=O)N[C@H]1CC[C@H](n2cc(COc3cccc4cnc(Nc5cccc(Cl)c5)nc34)nn2)CC1 [18a] .
# output 92

----------
# targetUnderTest: MmCLK1 (Mus musculus, UniProt P22518)
# Construct: host or cells: bacteria
# Sequence (P22518 whole entry): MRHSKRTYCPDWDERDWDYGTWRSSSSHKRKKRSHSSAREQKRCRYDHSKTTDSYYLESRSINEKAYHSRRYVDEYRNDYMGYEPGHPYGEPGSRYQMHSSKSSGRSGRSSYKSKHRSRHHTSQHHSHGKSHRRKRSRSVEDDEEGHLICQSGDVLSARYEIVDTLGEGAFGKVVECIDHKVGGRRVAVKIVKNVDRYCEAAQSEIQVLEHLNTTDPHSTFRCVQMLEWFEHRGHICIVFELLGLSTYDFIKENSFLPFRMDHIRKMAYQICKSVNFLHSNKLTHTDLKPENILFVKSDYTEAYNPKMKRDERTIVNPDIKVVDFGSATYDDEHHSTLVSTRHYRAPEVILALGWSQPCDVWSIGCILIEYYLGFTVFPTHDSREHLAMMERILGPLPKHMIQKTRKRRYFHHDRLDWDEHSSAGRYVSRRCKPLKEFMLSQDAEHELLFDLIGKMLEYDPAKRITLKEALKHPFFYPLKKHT
# assay: ADP-Glo kinase assay
# Type: biochemical
# conditionSet: 10 µM, n=2; read-out: % of residual activity Mm_CLK1
recordedMetric: remaining activity at 10 µM (%)
One number for each entry, in %.

Worked set:
| compound | remaining activity at 10 µM / % |
| --- | --- |
| O=[N+]([O-])c1cc(Br)ccc1-n1cc(COc2cccc3cnc(Nc4cccc(Cl)c4)nc23)nn1 [12d] | 22 |
| N[C@H]1CC[C@H](n2cc(COc3cccc4cnc(Nc5cccc(Cl)c5)nc34)nn2)CC1 [19a] | 10 |
| COC(=O)c1ccc(-n2cc(COc3cccc4cnc(Nc5cccc(Cl)c5)nc34)nn2)c([N+](=O)[O-])c1 [12f] | 18 |
| N[C@H]1CC[C@@H](n2cc(COc3cccc4cnc(Nc5cccc(Cl)c5)nc34)nn2)CC1 [16a] | 8 |
| O=[N+]([O-])c1cc(CO)ccc1-n1cc(COc2cccc3cnc(Nc4cccc(Cl)c4)nc23)nn1 [12e] | 35 |

List the reported remaining activity at 10 µM of each compound below.
1. O=C(O)c1ccc(-n2cc(COc3cccc4cnc(Nc5cccc(Cl)c5)nc34)nn2)c([N+](=O)[O-])c1 [12g]
2. CC(C)(C)OC(=O)N[C@H]1CC[C@@H](n2cc(COc3cccc4cnc(Nc5cc(Cl)cc(Cl)c5)nc34)nn2)CC1 [15b]

# output
1. 5
2. 73

----------
# targetUnderTest: Hs_CDK9/CyclinT (Homo sapiens, UniProt P50750)
# Construct: host or cells: Sf9 insect cells (baculovirus)
# Sequence (P50750 whole entry): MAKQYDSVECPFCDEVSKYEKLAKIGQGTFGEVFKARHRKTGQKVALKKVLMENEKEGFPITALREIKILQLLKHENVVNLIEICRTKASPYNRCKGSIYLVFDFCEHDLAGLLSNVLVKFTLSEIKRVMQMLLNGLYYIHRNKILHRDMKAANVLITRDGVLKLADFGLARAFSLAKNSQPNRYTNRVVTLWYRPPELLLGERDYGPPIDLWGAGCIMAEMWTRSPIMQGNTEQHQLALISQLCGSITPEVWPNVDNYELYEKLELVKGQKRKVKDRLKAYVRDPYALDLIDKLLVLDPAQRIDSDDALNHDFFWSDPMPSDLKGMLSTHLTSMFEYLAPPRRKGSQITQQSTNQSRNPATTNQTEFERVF
# Sequence (O60563 whole entry partner): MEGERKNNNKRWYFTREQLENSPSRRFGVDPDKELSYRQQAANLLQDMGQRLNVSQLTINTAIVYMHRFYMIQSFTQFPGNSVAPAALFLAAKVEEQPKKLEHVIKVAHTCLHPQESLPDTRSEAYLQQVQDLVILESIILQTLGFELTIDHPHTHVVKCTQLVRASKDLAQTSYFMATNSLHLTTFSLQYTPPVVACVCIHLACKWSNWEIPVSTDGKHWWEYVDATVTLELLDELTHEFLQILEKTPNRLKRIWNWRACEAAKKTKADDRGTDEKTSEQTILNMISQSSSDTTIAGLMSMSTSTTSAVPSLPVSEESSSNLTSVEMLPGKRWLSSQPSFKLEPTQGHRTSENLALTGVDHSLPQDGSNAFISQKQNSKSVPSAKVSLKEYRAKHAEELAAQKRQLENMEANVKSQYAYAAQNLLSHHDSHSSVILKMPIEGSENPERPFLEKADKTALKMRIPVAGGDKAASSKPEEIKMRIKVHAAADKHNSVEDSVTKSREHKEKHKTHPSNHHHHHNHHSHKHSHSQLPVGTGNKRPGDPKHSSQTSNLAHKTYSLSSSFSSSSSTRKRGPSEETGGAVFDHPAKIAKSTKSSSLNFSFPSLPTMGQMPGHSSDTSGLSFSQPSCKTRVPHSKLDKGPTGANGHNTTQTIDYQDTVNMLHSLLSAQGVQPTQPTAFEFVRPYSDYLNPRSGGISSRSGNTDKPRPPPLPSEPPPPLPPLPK
# assay: ADP-Glo kinase assay, primary screen
# Format: biochemical
# conditionSet: 10 µM, n=2; read-out: % of residual activity Hs_CDK9/CyclinT
recordedMetric: remaining activity at 10 µM (%)
Answers are plain numbers, in %.

List remaining activity at 10 µM for every entry below, keeping the order given.
1. O=[N+]([O-])c1cc(O)ccc1-n1cc(COc2cccc3cnc(Nc4cccc(Cl)c4)nc23)nn1 [12c]
2. CC(C)(C)OC(=O)N[C@H]1CC[C@H](n2cc(COc3cccc4cnc(Nc5cc(Cl)cc(Cl)c5)nc34)nn2)CC1 [18b]

# output
39
83

Provide the reported remaining activity at 10 µM of each entry below, same order.
1. CC(C)(C)OC(=O)N[C@H]1CC[C@@H](n2cc(COc3cccc4cnc(Nc5cc(Cl)cc(Cl)c5)nc34)nn2)CC1 [15b]
2. CC(C)(C)OC(=O)N[C@H]1CC[C@@H](n2cc(COc3cccc4cnc(Nc5cccc(Cl)c5)nc34)nn2)CC1 [15a]
3. COC(=O)c1ccc(-n2cc(COc3cccc4cnc(Nc5cccc(Cl)c5)nc34)nn2)c([N+](=O)[O-])c1 [12f]
4. N[C@H]1CC[C@H](n2cc(COc3cccc4cnc(Nc5cc(Cl)cc(Cl)c5)nc34)nn2)CC1 [19b]

# output
61
55
45
42

Look up remaining activity at 10 µM for the entries below, preserving their order.
1. O=C(O)c1ccc(-n2cc(COc3cccc4cnc(Nc5cccc(Cl)c5)nc34)nn2)c([N+](=O)[O-])c1 [12g]
2. CC(C)(C)OC(=O)N[C@H]1CC[C@H](n2cc(COc3cccc4cnc(Nc5cccc(Cl)c5)nc34)nn2)CC1 [18a]
3. N[C@H]1CC[C@@H](n2cc(COc3cccc4cnc(Nc5cccc(Cl)c5)nc34)nn2)CC1 [16a]
4. Cc1ccc(-n2cc(COc3cccc4cnc(Nc5cc(Cl)cc(Cl)c5)nc34)nn2)c([N+](=O)[O-])c1

# output
[21, 59, 12, 34]

Quick batch: remaining activity at 10 µM for everything below.
1. Cc1ccc(-n2cc(COc3cccc4cnc(Nc5ccccc5)nc34)nn2)c([N+](=O)[O-])c1
2. O=[N+]([O-])c1cc(CO)ccc1-n1cc(COc2cccc3cnc(Nc4cccc(Cl)c4)nc23)nn1 [12e]
3. N[C@H]1CC[C@H](n2cc(COc3cccc4cnc(Nc5cccc(Cl)c5)nc34)nn2)CC1 [19a]
4. N[C@H]1CC[C@@H](n2cc(COc3cccc4cnc(Nc5cc(Cl)cc(Cl)c5)nc34)nn2)CC1 [16b]
5. O=[N+]([O-])c1cc(Br)ccc1-n1cc(COc2cccc3cnc(Nc4cccc(Cl)c4)nc23)nn1 [12d]

# output
1: 45; 2: 21; 3: 30; 4: 18; 5: 43

----------
# targetUnderTest: HsDYRK1A (Homo sapiens)
# Construct: host or cells: Sf9 insect cells (baculovirus)
# assay: ADP-Glo kinase assay
# Format: biochemical
# conditionSet: 1 µM, n=2; read-out: % of residual activity Hs_DYRK1A
recordedMetric: remaining activity at 1 µM (%)
Numbers only, in %.

# annotated cases, reported remaining activity at 1 µM shown
| molecule | obsValue |
| --- | --- |
| CC(C)(C)OC(=O)N[C@H]1CC[C@@H](n2cc(COc3cccc4cnc(Nc5cccc(Cl)c5)nc34)nn2)CC1 [15a] | 95 |
| O=[N+]([O-])c1cc(CO)ccc1-n1cc(COc2cccc3cnc(Nc4cccc(Cl)c4)nc23)nn1 [12e] | 84 |
| N[C@H]1CC[C@@H](n2cc(COc3cccc4cnc(Nc5cc(Cl)cc(Cl)c5)nc34)nn2)CC1 [16b] | 85 |
| N[C@H]1CC[C@@H](n2cc(COc3cccc4cnc(Nc5cccc(Cl)c5)nc34)nn2)CC1 [16a] | 84 |

For every listed record, write down its remaining activity at 1 µM.
1. O=C(O)c1ccc(-n2cc(COc3cccc4cnc(Nc5cccc(Cl)c5)nc34)nn2)c([N+](=O)[O-])c1 [12g]
2. N[C@H]1CC[C@H](n2cc(COc3cccc4cnc(Nc5cccc(Cl)c5)nc34)nn2)CC1 [19a]

# output
1. 86
2. 84

----------
# targetUnderTest: Hs_PIM1 (Homo sapiens)
# Construct: host or cells: Sf9 insect cells (baculovirus)
# Sequence (P11309 whole entry): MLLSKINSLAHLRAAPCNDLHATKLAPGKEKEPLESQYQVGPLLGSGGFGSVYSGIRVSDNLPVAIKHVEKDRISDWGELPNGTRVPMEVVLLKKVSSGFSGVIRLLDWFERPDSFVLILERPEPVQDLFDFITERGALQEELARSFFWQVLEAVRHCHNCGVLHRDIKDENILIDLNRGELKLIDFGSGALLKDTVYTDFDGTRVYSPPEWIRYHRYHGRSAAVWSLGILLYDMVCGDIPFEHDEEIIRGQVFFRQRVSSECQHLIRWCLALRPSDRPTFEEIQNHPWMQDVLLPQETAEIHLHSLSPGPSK
# assay: ADP-Glo kinase assay, primary screen
# Format: biochemical
# conditionSet: 10 µM, n=2; read-out: % of residual activity Hs_PIM1
recordedMetric: remaining activity at 10 µM (%)
One number for each entry, in %.

Example cases with answers are listed next.
| molecule | targetUnderTest | remaining activity at 10 µM / % |
| --- | --- | --- |
| N[C@H]1CC[C@H](n2cc(COc3cccc4cnc(Nc5cccc(Cl)c5)nc34)nn2)CC1 [19a] | Hs_PIM1 (Homo sapiens) | 40 |
| O=[N+]([O-])c1cc(Br)ccc1-n1cc(COc2cccc3cnc(Nc4cccc(Cl)c4)nc23)nn1 [12d] | Hs_PIM1 (Homo sapiens) | 70 |

# input Field request: remaining activity at 10 µM | item: CC(C)(C)OC(=O)N[C@H]1CC[C@H](n2cc(COc3cccc4cnc(Nc5cccc(Cl)c5)nc34)nn2)CC1 [18a]
# output 74
